# System: Enterococcus faecium
Entries and their MIC values follow.
ASSAY ENDPOINT: MIC (µM)

{"ENTRY SMILES": "NC(=O)[C@H](CCCN=C(N)N)NC(=O)[C@H](CCCN=C(N)N)NC(=O)[C@H](Cc1c[nH]c2ccccc12)NC(=O)[C@@H]1CCCN1C(=O)[C@H](Cc1c[nH]c2ccccc12)NC(=O)[C@H](Cc1c[nH]c2ccccc12)NC(=O)[C@@H]1CCCN1C(=O)[C@H](Cc1c[nH]c2ccccc12)NC(=O)[C@H](CCCN=C(N)N)NC(=O)[C@@H](N)CCCN=C(N)N", "VALUE RELATION SIGN": "=", "NUMBER": 1.79}
{"ENTRY SMILES": "CC(C)C[C@H](NC(=O)[C@H](Cc1ccc(O)cc1)NC(=O)[C@H](Cc1cnc[nH]1)NC(=O)[C@@H](NC(=O)[C@H](CC(C)C)NC(=O)[C@H](C)NC(=O)[C@H](C)NC(=O)[C@H](CCCCN)NC(=O)CNC(=O)[C@@H](NC(=O)[C@H](Cc1cnc[nH]1)NC(=O)[C@H](CCCCN)NC(=O)CNC(=O)[C@@H](NC(=O)[C@H](Cc1cnc[nH]1)NC(=O)[C@H](C)NC(=O)[C@H](C)NC(=O)[C@H](CCCCN)NC(=O)[C@@H](N)CCCCN)C(C)C)C(C)C)[C@@H](C)O)C(N)=O", "VALUE RELATION SIGN": "≥", "NUMBER": 40}
{"ENTRY SMILES": "CC[C@H](C)[C@H](NC(=O)[C@H](CCCCN)NC(=O)[C@H](CS)NC(=O)[C@H](CC(C)C)NC(=O)CNC(=O)CNC(=O)[C@H](C)NC(=O)[C@@H](NC(=O)[C@H](CC(N)=O)NC(=O)[C@H](CCCCN)NC(=O)[C@H](CC(C)C)NC(=O)[C@@H](NC(=O)[C@H](CC(N)=O)NC(=O)[C@H](C)NC(=O)[C@H](Cc1c[nH]c2ccccc12)NC(=O)CN)[C@@H](C)O)C(C)C)C(=O)N[C@H](C(=O)NCC(=O)N[C@@H](C)C(=O)N[C@@H](C)C(=O)O)[C@@H](C)O", "VALUE RELATION SIGN": "=", "NUMBER": 19.3}
{"ENTRY SMILES": "CC[C@H](C)[C@H](NC(=O)[C@H](CCCCN)NC(=O)[C@H](CCC(N)=O)NC(=O)[C@H](CCCCN)NC(=O)[C@@H](NC(=O)[C@@H](NC(=O)[C@H](CCC(N)=O)NC(=O)[C@@H](NC(=O)[C@@H](NC(=O)[C@@H]1CCCN1C(=O)[C@H](CCCN=C(N)N)NC(=O)[C@@H](NC(=O)[C@@H](NC(=O)[C@@H](N)CCCN=C(N)N)[C@@H](C)CC)[C@@H](C)CC)[C@@H](C)CC)[C@@H](C)CC)[C@@H](C)CC)[C@@H](C)CC)C(=O)N[C@@H](CCCN=C(N)N)C(=O)O", "VALUE RELATION SIGN": "=", "NUMBER": 1.06}
{"ENTRY SMILES": "CC[C@H](C)[C@H](NC(=O)[C@H](CO)NC(=O)[C@H](CCCCN)NC(=O)[C@H](CC(C)C)NC(=O)[C@H](CCCCN)NC(=O)[C@@H](N)CC(C)C)C(=O)N[C@H](C(=O)N[C@@H](CO)C(=O)N[C@@H](Cc1c[nH]c2ccccc12)C(=O)N[C@@H](C)C(=O)N[C@@H](CCCCN)C(=O)N[C@@H](CCCCN)C(=O)N[C@H](C(=O)N[C@@H](CC(C)C)C(N)=O)C(C)C)C(C)C", "VALUE RELATION SIGN": "≥", "NUMBER": 79.4}
